# target_system: GPR6 receptor expressed in CHO-K1 cells (Homo sapiens, UniProt P46095)
# Construct: expressed in transfected cells
# Sequence (P46095 whole entry): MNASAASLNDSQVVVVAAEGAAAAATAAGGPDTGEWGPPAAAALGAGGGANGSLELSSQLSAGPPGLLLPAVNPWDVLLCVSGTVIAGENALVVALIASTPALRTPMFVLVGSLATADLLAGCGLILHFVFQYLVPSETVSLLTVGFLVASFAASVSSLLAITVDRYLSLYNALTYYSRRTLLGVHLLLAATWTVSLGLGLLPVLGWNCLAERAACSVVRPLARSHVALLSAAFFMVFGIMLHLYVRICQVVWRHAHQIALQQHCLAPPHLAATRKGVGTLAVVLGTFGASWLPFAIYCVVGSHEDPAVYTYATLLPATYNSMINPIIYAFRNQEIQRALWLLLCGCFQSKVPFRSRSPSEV
# assay_text: In vitro inhibition of cAMP (EC50), cell-based HTRF cAMP assay
# assay_setup: inhibition of constitutive cAMP activity of GPR6 in CHO-K1 cells
readout_label: pEC50, in vitro inhibition of cAMP

- cpd_smiles: "COc1ncccc1C(=O)Nc1cc(C#N)ccc1N1CCN(Cc2cccc(F)c2)CC1"
  readout_label: "pEC50, in vitro inhibition of cAMP"
  data_value: 6.8
- cpd_smiles: "COc1ccccc1CN1CCN(c2ccc(C#N)cc2NC(=O)c2cccnc2OC)CC1"
  readout_label: "pEC50, in vitro inhibition of cAMP"
  data_value: 5.9
- cpd_smiles: "Cc1nnc(C(=O)Nc2cc(C#N)ccc2N2CCC(Oc3ccc(F)cc3F)CC2)o1"
  readout_label: "pEC50, in vitro inhibition of cAMP"
  data_value: 5.6
- cpd_smiles: "CCCNC(=O)c1cc(N2CCC(Oc3ccc(F)cc3F)CC2)c(NC(=O)c2cccnc2OC)cn1"
  readout_label: "pEC50, in vitro inhibition of cAMP"
  data_value: 7.2
- cpd_smiles: "COc1ncccc1C(=O)Nc1cc(C#N)ccc1N1CCN(S(=O)(=O)c2ccc(F)cc2)CC1"
  readout_label: "pEC50, in vitro inhibition of cAMP"
  data_value: 6.2
- cpd_smiles: "COc1ccc(F)c(F)c1C(=O)Nc1cc(C#N)ccc1N1CCC(Oc2ccc(F)cc2F)CC1"
  readout_label: "pEC50, in vitro inhibition of cAMP"
  data_value: 6.3
- cpd_smiles: "Cn1cc2ccc(NC(=O)c3ccccn3)c(N3CCC(Oc4ccc(F)cc4F)CC3)c2n1"
  readout_label: "pEC50, in vitro inhibition of cAMP"
  data_value: 5.8
- cpd_smiles: "Cc1cc(C(=O)Nc2cc(C#N)ccc2N2CCC(Oc3ccc(F)cc3F)CC2)nn1C"
  readout_label: "pEC50, in vitro inhibition of cAMP"
  data_value: 6.9

###

# target_system: GPR6 receptor expressed in CHO-K1 cells (Homo sapiens)
# Construct: expressed in transfected cells
# assay_text: In vitro inhibition of cAMP (EC50), cell-based HTRF cAMP assay
# assay_setup: inhibition of constitutive cAMP activity of GPR6 in CHO-K1 cells
readout_label: pEC50, in vitro inhibition of cAMP

- molecule: "N#Cc1cnc(N2CCC(Oc3ccc(F)cc3F)CC2)c(NC(=O)c2ccccn2)c1"
  pEC50, in vitro inhibition of cAMP: 7.3
- molecule: "COc1ncccc1C(=O)Nc1cc(C#N)ccc1N1CCN(C(C)c2ccc(F)cc2)CC1 (centres unmarked)"
  pEC50, in vitro inhibition of cAMP: 6.0
- molecule: "COc1c(C)cccc1C(=O)Nc1cc(C#N)ccc1N1CCC(Oc2ccc(F)cc2F)CC1"
  pEC50, in vitro inhibition of cAMP: 6.4
- molecule: "Cn1cccc(C(=O)Nc2cc(C#N)ccc2N2CCC(C(=O)c3cc(F)ccc3F)CC2)c1=O"
  pEC50, in vitro inhibition of cAMP: 7.0
- molecule: "COc1ccc(OC2CCN(c3ccc(C#N)cc3NC(=O)c3cccn(C)c3=O)CC2)c(F)c1"
  pEC50, in vitro inhibition of cAMP: 7.3
- molecule: "COc1cc(F)cc(CN2CCN(c3ncc(C#N)cc3NC(=O)c3cn(C)nc3OC)CC2)c1"
  pEC50, in vitro inhibition of cAMP: 6.0
- molecule: "Cc1csc2ncc(C(=O)Nc3cc(C#N)ccc3N3CCC(Oc4ccc(F)cc4F)CC3)c(=O)n12"
  pEC50, in vitro inhibition of cAMP: 6.8
- molecule: "Cn1cnc(C(=O)Nc2cc(C#N)ccc2N2CCC(Oc3ccc(F)cc3F)CC2)c1"
  pEC50, in vitro inhibition of cAMP: 6.6
